Values compiled from PubChem BioAssay (NCI).

System: MDA-MB-468 breast
Test: NCI-60 one-dose screen, 48 h (100 = growth as untreated, 0 = no growth, -100 = all killed)
Conditions: 10 µM unless noted
Method: Growth inhibition of the MDA-MB-468 human Breast tumor cell line is measured as a screen for anti-cancer activity. Cells are grown in 96 well plates and exposed to the test compound for 48 hours. Compounds are tested at a single concentration, which is 10^-5 M for most compounds. The reported endpoint is percent growth (GI% or GIPRCNT), where numbers from 0 - 100% represent growth inhibition, and numbers from -100% - 0 represent cell death. […]
About 83,000 compounds went through this panel and 20% of them were active in at least one assay; those are over-represented in the sample as a whole.
growth strictly less than 90% = Fulfilled. Otherwise Not fulfilled.

QUERY: Does COC(=O)CCCCCN=Cc1c(O)c(O)c(C(C)C)c2cc(C)c(-c3c(C)cc4c(C(C)C)c(O)c(O)c(C=NCCCCCC(=O)OC)c4c3O)c(O)c12 have growth strictly under 90%?
RESULT: Fulfilled

QUERY: Lab note: growth threshold 90%. Does this molecule come in strictly under it? Cc1ccc(C)c(CN(C)C)c1O
RESULT: Not fulfilled

QUERY: Lab note: growth threshold 90%. Does this molecule come in strictly under it? O=S(=O)(NCCCNc1nccc(-c2[nH]c(-c3ccccc3)nc2-c2ccc(F)c(O)c2)n1)c1cccc(F)c1
RESULT: Fulfilled

QUERY: Check if growth falls below 90% for NCc1c(O)ccc2ccccc12 .
RESULT: Not fulfilled

QUERY: Is the reported growth for COc1ccc(/C=C/C(=O)c2cc3c(N)c(C(=O)Nc4cccc(Cl)c4C)sc3nc2C)cc1 strictly below 90%?
RESULT: Fulfilled

QUERY: Would you kindly verify if growth of Nc1n[nH]c2cccc(C#Cc3cccc(NC(=O)c4cccc(OC(F)(F)F)c4)c3)c12 is strictly less than 90%?
RESULT: Not fulfilled
